Measurement target: T1, Human NOTUM (human, UniProt Q6P988 20-496)
T1 sequence: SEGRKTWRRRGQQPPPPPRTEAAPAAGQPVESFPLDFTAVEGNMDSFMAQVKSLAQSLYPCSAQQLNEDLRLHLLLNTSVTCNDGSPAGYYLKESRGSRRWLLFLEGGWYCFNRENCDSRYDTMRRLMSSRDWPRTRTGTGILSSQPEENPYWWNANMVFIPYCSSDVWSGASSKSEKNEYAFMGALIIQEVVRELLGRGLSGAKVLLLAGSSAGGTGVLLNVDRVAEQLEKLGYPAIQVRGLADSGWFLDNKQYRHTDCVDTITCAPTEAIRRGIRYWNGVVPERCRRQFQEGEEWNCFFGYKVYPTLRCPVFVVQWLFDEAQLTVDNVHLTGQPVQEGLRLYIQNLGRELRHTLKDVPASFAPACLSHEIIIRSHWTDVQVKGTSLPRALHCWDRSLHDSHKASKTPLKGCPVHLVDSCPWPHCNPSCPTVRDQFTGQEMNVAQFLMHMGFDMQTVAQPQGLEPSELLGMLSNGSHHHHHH
Protocol details: cell-based or functional assay
Each entry below lists one item and its recorded OPTS IC50 (nM; human NOTUM) value.
Quick reminder: number only, in nM, skip the unit.

1. MAb 1.846 (antibody, IgG2b, V domains shown, Mouse monoclonal antibody from Campaign 1, IgG2b) VH: EVQLVESGGDLVKPGGSLKLSCAASGFTFSDYGMHWLRQAPEKGLEWVAYISSGSTTLSYANTMKGRFTISRDNAKKTLSLQMTSLRSEDTAIYYCARKNYNGGYFDVWGTGTTVTVSS VL: DIVLTQSPASLVVSLGQRATISCRASKSVSESGYSYMHWYQQKPGQPPKLLIYLASNLESGVPARFSGSGSGTDFTLNIHPVEEGDATTYYCQHSRVLPPTFGSGTKLEIKR | 10.1

Shifting focus to the binder that follows.
Report OPTS IC50 (nM; human NOTUM) for MAb 1.815 (antibody, IgG1, V domains shown, Mouse monoclonal antibody from Campaign 1, IgG1) VH: DVQLLESGGGLVQPGGSRKLSCAASGFTFSDFGMHWVRQAPEKGLEWVAYSSSGGTTVYYADTVKGRLTLSRDNSKNTLFLEMTSLRSEDTAMYYCARASYDGGYFDCWGQGTSLTVSS VL: DIVLTQSPASLAVSLGQRATISCRASKSVSTSGYSYIHWYQQKPGQPPKLLIYLASDLESGVPARFSGSGSGAAFTLNIHPVEEEDAATYYCHHSRELPFTFGSGTKLEIKR please. 7.62
